- METHOD_NOTES: Test B: Cytotoxicity Assay
- Format: cell-based
- TEST_CONTEXT: human, uninfected MT-4 cells, same protocol as Test A
Here the recorded CC50 at 5 days is given for each entry.

| COMPOUND | CC50 at 5 days |
| --- | --- |
| Cn1nc(NC(=O)NC2CC2)c2cccc(-c3ccc(C#CC(C)(C)O)nc3[C@H](Cc3cc(F)cc(F)c3)NC(=O)Cn3nc(C(F)(F)F)c4c3C(F)(F)[C@@H]3C[C@H]43)c21 [Compound 50] | 11.7 µM |
| Cn1nc(NS(C)(=O)=O)c2c(Cl)ccc(-c3ccc(C#CC(C)(C)O)nc3[C@H](Cc3cc(F)cc(F)c3)NC(=O)Cn3nc(C(F)F)cc3C(F)F)c21 [Compound 189] | 17.2 µM |
| Cn1nc(NS(C)(=O)=O)c2c(Cl)ccc(-c3ccc(C#CC(C)(C)O)nc3[C@H](Cc3cc(F)cc(F)c3)NC(=O)Cn3nc(Cl)c4c3CCCC4)c21 [Compound 126] | 15.5 µM |
| COCC(C)(O)C#Cc1ccc(-c2ccc(Cl)c3c(NS(C)(=O)=O)nn(C)c23)c([C@H](Cc2cc(F)cc(F)c2)NC(=O)Cn2nc(C(F)(F)F)c3c2C(F)(F)[C@@H]2C[C@H]32)n1 (stereo partly shown) [Compound 154] | 12.5 µM |

----------
- METHOD_NOTES: Test B: Cytotoxicity Assay
- Format: cell-based
- TEST_CONTEXT: human, uninfected MT-4 cells, same protocol as Test A
CC50 at 5 days strictly less than 10 µM = Criterion met. Otherwise Criterion not met.

| COMPOUND | DISCRETE_LABEL |
| --- | --- |
| Cc1nc(NS(C)(=O)=O)c2cccc(-c3ccc(C#CC(C)(C)O)nc3[C@H](Cc3cc(F)cc(F)c3)NC(=O)Cn3nc(C(F)(F)F)c4c3C(F)(F)[C@@H]3C[C@H]43)n12 | Criterion met |
| Cn1nc(NS(C)(=O)=O)c2c(Cl)ccc(-c3ccc(C#CC(C)(C)O)nc3[C@H](Cc3cc(F)cc(F)c3)NC(=O)Cn3nc4c(c3Cl)[C@H]3C[C@H]3C4(F)F)c21 [Compound 140M] | Criterion not met |
| Cn1nc(NS(C)(=O)=O)c2c(Cl)ccc(-c3ccc(C#CC(C)(C)O)nc3[C@H](Cc3cc(F)cc(F)c3)NC(=O)Cc3cccc(Cl)c3Cl)c21 | Criterion not met |
| CC(C)C(C)(O)C#Cc1ccc(-c2cccc3c(NS(C)(=O)=O)nn(C)c23)c([C@H](Cc2cc(F)cc(F)c2)NC(=O)Cn2nc(C(F)(F)F)c3c2C(F)(F)[C@@H]2C[C@H]32)n1 (stereo partly drawn) | Criterion met |
| CC(C)(O)C#Cc1ccc(-c2ccc(Cl)n3c(N)nnc23)c([C@H](Cc2cc(F)cc(F)c2)NC(=O)Cn2nc(C(F)(F)F)c3c2C(F)(F)[C@@H]2C[C@H]32)n1 | Criterion met |
| Cc1cc2ncn(CC(=O)N[C@@H](Cc3cc(F)cc(F)c3)c3nc(C#CC(C)(C)O)ccc3-c3ccc(Cl)c4c(NS(C)(=O)=O)nn(C)c34)c2cc1C | Criterion not met |
| Cn1cnc(-c2ccc(-c3ccc(Cl)c4c(NS(C)(=O)=O)nn(C)c34)c([C@H](Cc3cc(F)cc(F)c3)NC(=O)Cn3nc(C(F)(F)F)c4c3C(F)(F)[C@@H]3C[C@H]43)n2)c1 | Criterion not met |
| Cn1nccc1-c1ccc(-c2ccc(Cl)c3c(NS(C)(=O)=O)nn(C)c23)c([C@H](Cc2cc(F)cc(F)c2)NC(=O)Cn2nc(C(F)(F)F)c3c2C(F)(F)[C@@H]2C[C@H]32)n1 | Criterion not met |
| Cn1nc(NS(C)(=O)=O)c2c(Cl)ccc(-c3ccc(C#CC(C)(C)O)nc3[C@H](Cc3cc(F)cc(F)c3)NC(=O)Cn3nc(C(F)F)c4c3C(F)(F)CCC4(F)F)c21 | Criterion met |
